Attribution: patent US20240076375A1

target: Tim-3 (form used in the assay not stated) (human, UniProt Q8TDQ0 22-202, limits assumed); assay: SPR, Fab, Test 1
Sequence (Q8TDQ0 22-202 R140L limits assumed): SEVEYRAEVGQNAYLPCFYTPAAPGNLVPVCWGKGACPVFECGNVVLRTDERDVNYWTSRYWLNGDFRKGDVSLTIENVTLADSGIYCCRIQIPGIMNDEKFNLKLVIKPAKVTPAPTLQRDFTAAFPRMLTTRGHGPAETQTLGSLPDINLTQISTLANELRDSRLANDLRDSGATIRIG
pKd: −log10 of the molar value.
Readout Name: pKd

# Binder, Numeric Value
rows = [
    ("ch425 Fab (Fab, V domains shown, Fab prepared from the mAb with the Pierce Fab Preparation Kit) VH: EVKLVESGGGLVKPGGSLKLSCAASGFTFSRYAMSWVRQIPEKRLEWVAAISSGGSLYFPDSVKGRFTISRDNARNICYLQMNSLRSDDTAMYYCARGREADGGYFDYWGQGTTLTVSS VL: DIVLTQSPASLAVSLGQRATISCRASESVEYYGTSLMQWYQQKPGQPPKLLIYAASNVESGVPARFSGSGSGTDFSLNIHPVEEDDIAMYFCQQSMKVPLTFGAGTKLELKR", 9.91),
    ("hu425-2-2 Fab (Fab, V domains shown, Fab prepared from the mAb with the Pierce Fab Preparation Kit; Only the variable domains are tied to the name. hu425s were engineered in the human IgG1 format) VH: EVQLVESGGGLVQPGGSLRLSCAASGFTFSRYAMSWVRQAPGKGLEWVAAISSGGSLYYPDSVKGRFTISRDNAKNTLYLQMNSLRAEDTAVYYCARGREADGGYFDYWGQGTLVTVSS VL: EIVMTQSPATLSVSPGERATLSCRASESVEYYGTSLMQWYQQKPGQAPRLLIYAASNVESGIPARFSGSGSGTEFTLTISSLQSEDFAVYYCQQSLKVPLTFGGGTKVEIK", 9.36),
    ("hu425-1-1 Fab (Fab, V domains shown, Fab prepared from the mAb with the Pierce Fab Preparation Kit) VH: EVQLVESGGGLVQPGGSLRLSCAASGFTFSRYAMSWVRQAPGKGLEWVAAISSGGSLYFPDSVKGRFTISRDNAKNSCYLQMNSLRAEDTAVYYCARGREADGGYFDYWGQGTLVTVSS VL: DIVLTQSPATLSVSPGERATLSCRASESVEYYGTSLMQWYQQKPGQAPRLLIYAASNVESGVPARFSGSGSGTDFTLTISSLQSEDFAVYYCQQSMKVPLTFGGGTKVEIKR", 9.80),
    ("hu425-2-3b Fab (Fab, V domains shown, Fab prepared from the mAb with the Pierce Fab Preparation Kit; Only the variable domains are tied to the name) VH: EVQLVESGGGLVQPGGSLRLSCAASGFTFSRYAMSWVRQAPGKGLEWVAAISSGGSLYYPDSVKGRFTISRDNAKNTLYLQMNSLRAEDTAVYYCARGREADGGYFDYWGQGTLVTVSS VL: EIVLTQSPATLSVSPGERATLSCRASESVEYYGTSLMQWYQQKPGQAPRLLIYAASNVESGIPARFSGSGSGTEFTLTISSLQSEDFAVYYCQQSLKVPLTFGGGTKVEIK", 9.45),
]
